Target: T1, CD25 (R&D systems cat. #223-2A/CF) (UniProt P01589 22-213, limits assumed)
T1 construct: Bought soluble protein
T1 sequence (looked up): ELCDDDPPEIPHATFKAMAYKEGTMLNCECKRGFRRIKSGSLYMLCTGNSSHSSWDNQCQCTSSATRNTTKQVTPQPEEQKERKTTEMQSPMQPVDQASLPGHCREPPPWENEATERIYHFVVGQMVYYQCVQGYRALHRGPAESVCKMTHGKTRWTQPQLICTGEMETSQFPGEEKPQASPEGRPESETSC
Assay: Biacore (SPR); antibody captured on Protein A, CD25 injected
Readings of Fold change in Kd vs. H0L0 for the listed binders
Answer with the value and then the unit.

binder	Fold change in Kd vs. H0L0
anti-CD25 H1.22L1 (antibody, IgG1, V domains shown, IgG1 format) VH: QVQLVQSGAEVKKPGASVKVSCKASGYTFTSYRMHWVRQAPGQGLEWMGWINPNSGGTNYAQKFQGRVTITRDTSISTAYMELSRLRSDDTAVYYCARGGGVFDYWGQGTLVTVSS VL: QIVLTQSPATLSLSPGERATLSCRASSSISYMHWFQQKPGQSPQLLIYTTSNLASGVPARFSGSGSGTDYTLTISSLQPEDFAVYYCHQRSTYPLTFGSGTKLEIK	1.5 fold
anti-CD25 H1L1.56 (antibody, V domains shown, the fourth VL chain; also called VL combination variant L1.56 paired with H1) VH: QVQLVQSGAEVKKPGASVKVSCKASGYTFTSYRMHWVRQAPGQGLEWMGYINPSTGYTEYNQKFQGRVTITADKSISTAYMELSRLRSDDTAVYYCARGGGVFDYWGQGTLVTVSS VL: QIVLTQSPATLSLSPGERATLSCRASQSVSYLHWFQQKPGQSPQLLIYTTSNRATGIPARFSGSGSGTDFTLTISSLEPEDFAVYYCHQRSTYPLTFGSGTKLEIK	-5 fold

Moving on to another binder below.
Input: Using the record for anti-CD25 H1.22L1.48 (antibody, V domains shown) VH: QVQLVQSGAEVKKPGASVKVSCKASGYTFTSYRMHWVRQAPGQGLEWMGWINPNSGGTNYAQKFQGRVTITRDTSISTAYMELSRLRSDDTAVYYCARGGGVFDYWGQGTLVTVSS VL: EIVLTQSPATLSLSPGERATLSCRASQSVSYMHWYQQKPGQAPRLLIYTTSNRATGIPARFSGSGSGTDFTLTISSLEPEDFAVYYCHQRSTYPLTFGSGTKLEIK , report its Fold change in Kd vs. H0L0.
Output: 1.5 fold

Recorded values, source patent US20100004431A1.
